Assay: In vivo pharmacokinetic study, single oral dose in mice, plasma and liver
Conditions: male, ICR, mouse, in vivo, po, 80 mg/kg
readout_kind: Vd/F

Memo: COc1cc(NC(C)CCCN)c2ncccc2c1 (stereo not shown) [Primaquine, reference compound] , reported Vd/F: 4.42 L/kg

###

Assay: In vivo pharmacokinetic study, single oral dose in mice, plasma and liver
Conditions: male, ICR, mouse, liver, po, 80 mg/kg
Each entry below carries its recorded Vd/F.
# do not omit the unit; it follows the number

Known results for compounds:
CCCN(CCC)CCCOc1ccc2c(=O)c3c(F)cc(F)cc3[nH]c2c1 [compound 52]: 3.48 L/kg
CCCN(CCC)CCOc1ccc2c(=O)c3c(Cl)c(Cl)ccc3[nH]c2c1 [compound 74]: 0.392 L/kg

Kindly consider the entry below.
// field: Vd/F; key: CCCN(CCC)CCOc1ccc2c(=O)c3c(F)cc(F)cc3[nH]c2c1 [compound 48] ; value = 14 L/kg
